# Test system: OVCAR-4 ovarian
# Experimental protocol: NCI-60 one-dose screen, 48 h (100 = growth as untreated, 0 = no growth, -100 = all killed)
# Condition info: 10 µM unless noted
# Method: Growth inhibition of the OVCAR-4 human tumor cell line is measured as a screen for anti-cancer activity. Cells are grown in 96 well plates and exposed to the test compound for 48 hours. Compounds are tested at a single concentration, which is 10^-5 M for most compounds. The reported endpoint is percent growth (GI% or GIPRCNT), where numbers from 0 - 100% represent growth inhibition, and numbers from -100% - 0 represent cell death. For example, a value of 40 represents 60% growth inhibition. […]
The panel holds about 83,000 compounds, 20% with a hit somewhere; the sample as a whole holds those more often.
Recorded growth by entry
The reply should be a number in %, with the unit left off.

Recorded growth, per entry:
Compound	Display unit	Data value
Oc1ccccc1-c1nc2ccccn2c1NCCN1CCOCC1	%	92.2
O=C(CCc1nc(-c2cccc(Cl)c2)no1)Nc1ccccn1	%	107
Nc1nc(N)c(-c2ccc(Cl)cc2)c(/C=C/c2ccc([N+](=O)[O-])cc2)n1	%	77.3
COc1ccc(-c2nc3ccccn3c2/C=C/C(=O)c2cc(OC)c(OC)c(OC)c2)cc1	%	56.5
Cc1cc(-c2ccccc2)cc(SC#N)[n+]1[O-]	%	41.2

## Task Record request: growth value, item CCCCN1CCN(c2ccc3nc(-c4ccc5nc(-c6ccc(OCC)c(OCC)c6)[nH]c5c4)[nH]c3c2)CC1
## Result -77.4

## Task Record request: growth value, item O=C1CSC(c2ccccc2)N1c1ccccc1 (stereo not given)
## Result 104

## Task Record request: growth value, item C[C@H]1[C@H](C)CC[C@]2(C(=O)N3CCN(C)CC3)CC[C@]3(C)C(=CC[C@@H]4[C@@]5(C)C/C(=C/c6cccnc6)C(=O)C(C)(C)[C@@H]5CC[C@]43C)[C@H]12
## Result -24.9

## Task Record request: growth value, item Fc1ccc(Nc2ccc3cc(OCCCN4CCOCC4)ccc3n2)cc1F
## Result 49.4

## Task Record request: growth value, item Cc1cnc(Nc2ccc(OCCN3CCCC3)cc2)nc1NCc1ccco1
## Result 59.4

## Task Record request: growth value, item CN(C)c1ccc(/C=N/NC(=O)COc2cc(=O)n(C)c3ccccc23)cc1
## Result 113
